- assay-target: T1, cynomolgus monkey CD8A on primary cynomolgus monkey CD8+ T cells (cynomolgus monkey, UniProt P01732 23-235 (human entry))
- T1 construct: also called Cyno CD8alpha
- T1 sequence (P01732 other isoform, or with tags, fused parts or gaps limits assumed): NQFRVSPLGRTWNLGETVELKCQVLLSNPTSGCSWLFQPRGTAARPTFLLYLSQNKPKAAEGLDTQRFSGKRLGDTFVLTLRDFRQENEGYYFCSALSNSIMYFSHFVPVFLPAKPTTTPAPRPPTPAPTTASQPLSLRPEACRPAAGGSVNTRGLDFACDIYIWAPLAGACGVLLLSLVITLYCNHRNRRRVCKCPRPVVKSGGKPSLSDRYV
- protocol-summary: flow cytometry, cyno CD8+ T cells, 2 uM FN3
Item-by-item account of Cyno T-cell Binding 2 uM (MFI)

[
  {
    "binder": "P283AR9P1362_C6 (designed binder, FN3 domain) LPAPKNLVVSRVTEDSARLSWYPSDPPFDSFLIQYQESEKVGEAIVLTVPGSERSYDLTGLKPGTEYTVSIYGVPNYHSRRSYYYSNPLSAIFTT",
    "Cyno T-cell Binding 2 uM (MFI)": 17500
  },
  {
    "binder": "P283AR9P1362_B2 (designed binder, FN3 domain) LPAPKNLVVSRVTEDSARLSWAKHPNSFDSFLIQYQESEKVGEAIVLTVPGSERSYDLTGLKPGTEYTVSIYGVDVVVNELNNPLFSNPLSAIFTT",
    "Cyno T-cell Binding 2 uM (MFI)": 38800
  },
  {
    "binder": "P282ER9P1360_F11 (designed binder, FN3 domain) LPAPKNLVVSRVTEDSARLSWIAPDAAFDSFSIAYVEAELVGEAIQLVVPGSERSYDLTGLKPGTEYWVVILGVKGGNPSNPLGASFTT",
    "Cyno T-cell Binding 2 uM (MFI)": 48700
  },
  {
    "binder": "P282ER9P1360_H2 (designed binder, FN3 domain) LPAPKNLVVSRVTEDSARLSWTAPDAAFDSFSIAYVEAELVGEAIQLVVPGSERSYDLTGLKPGTEYWVVILGVKGGNPSNPLGASFTTT",
    "Cyno T-cell Binding 2 uM (MFI)": 44600
  }
]
